PROTOCOL_NOTES: Repeated once-daily oral dosing with food (Days 1-7) in healthy subjects, PK and PD
Assay type: in vivo, human
MEASUREMENT_CONDITIONS: both sexes, human, plasma, oral, 8 mg, young subjects, 8 mg, Day 1; read-out: Cmax, Mean (SD)
Description: A randomized, double-blind, placebo-controlled, parallel-dose group in-patient study is conducted to investigate the pharmacodynamic (PD) effects of crystalline Form II of Compound (I) in healthy subjects. The study is designed as a three-part, sequential study. […]
REPORTED_PROPERTY: Cmax (ng/mL)
Enter your answer as a number in ng/mL; do not include the unit.

Determine from records and report Cmax for Cc1ccc(COC(=O)N2CC[C@H](CNc3ncccn3)[C@H](F)C2)cc1 [Form II] 179

meta.source: patent US12410153B2
